target: Serotonin Transporter (Homo sapiens)
Sequence (P31645 whole entry): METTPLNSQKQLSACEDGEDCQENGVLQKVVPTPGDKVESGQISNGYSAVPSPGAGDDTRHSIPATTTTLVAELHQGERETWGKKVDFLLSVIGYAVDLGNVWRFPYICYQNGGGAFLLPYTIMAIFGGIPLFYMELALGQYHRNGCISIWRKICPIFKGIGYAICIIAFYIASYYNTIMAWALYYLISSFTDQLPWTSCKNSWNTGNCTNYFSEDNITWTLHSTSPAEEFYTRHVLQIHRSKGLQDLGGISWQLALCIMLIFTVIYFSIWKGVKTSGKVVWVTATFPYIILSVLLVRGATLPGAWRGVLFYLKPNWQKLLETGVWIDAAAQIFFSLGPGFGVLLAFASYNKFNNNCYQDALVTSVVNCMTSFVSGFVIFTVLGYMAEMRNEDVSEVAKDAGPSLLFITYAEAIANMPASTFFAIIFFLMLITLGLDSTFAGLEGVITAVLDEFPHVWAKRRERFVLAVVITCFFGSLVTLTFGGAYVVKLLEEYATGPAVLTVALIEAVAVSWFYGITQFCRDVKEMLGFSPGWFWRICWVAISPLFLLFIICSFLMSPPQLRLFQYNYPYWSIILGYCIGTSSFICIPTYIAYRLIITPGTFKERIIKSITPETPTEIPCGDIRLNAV
pKi: −log10 of the molar value.
Measured Parameter: pKi

>>> observed_value("COc1cccc(OC)c1NC(=O)c1ccc(Cc2cc3c(cc2C)C(C)(C)CCC3(C)C)o1 [Compound 20]")
"< 6.00"

----------
Listed here are molecules together with their documented Ki.
molecular target: D2 Dopamine (Homo sapiens, UniProt P14416); assay: Selectivity: D2 Dopamine
Sequence (P14416 whole entry): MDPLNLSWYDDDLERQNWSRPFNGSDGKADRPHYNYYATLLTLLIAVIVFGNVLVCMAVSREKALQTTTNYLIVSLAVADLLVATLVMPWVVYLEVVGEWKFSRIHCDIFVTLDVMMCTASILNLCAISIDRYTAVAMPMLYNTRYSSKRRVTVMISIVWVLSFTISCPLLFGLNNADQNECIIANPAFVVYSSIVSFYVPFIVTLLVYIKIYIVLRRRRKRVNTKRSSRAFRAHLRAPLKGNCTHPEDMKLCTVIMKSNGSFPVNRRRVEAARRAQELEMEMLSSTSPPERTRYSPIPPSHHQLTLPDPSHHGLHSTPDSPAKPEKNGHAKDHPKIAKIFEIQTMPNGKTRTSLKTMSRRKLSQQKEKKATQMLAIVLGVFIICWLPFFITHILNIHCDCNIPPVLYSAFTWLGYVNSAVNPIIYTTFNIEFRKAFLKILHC
Measured Parameter: Ki

>>> observed_value("COc1cccc(OC)c1NC(=O)c1ccc(Cc2cc3c(cc2C)C(C)(C)CCC3(C)C)o1")
"> 3.2 µM"
>>> observed_value("COc1cccc(OC)c1NC(=O)c1ccc(Cc2c(C)cc(C)c(Br)c2C)o1")
"2.3 µM"
>>> observed_value("Cc1cc2c(cc1Cc1ccc(C(=O)NCc3nc4ccccc4[nH]3)o1)C(C)(C)CCC2(C)C")
"> 3.2 µM"
>>> observed_value("Cc1cnc(CNC(=O)c2ccc(Cc3cc4c(cc3C)C(C)(C)CCC4(C)C)o2)cn1")
"> 3.2 µM"
>>> observed_value("Cc1cc2c(cc1Cc1ccc(C(=O)NCC3CCCC(CNc4nccc(NCC5CCCO5)n4)C3)o1)C(C)(C)CCC2(C)C (stereo not drawn)")
"0.15 µM"
>>> observed_value("Cc1cc2c(cc1Cc1ccc(C(=O)NCc3cccc(CNc4ccnc(NC[C@@H]5CCCO5)n4)c3)o1)C(C)(C)CCC2(C)C")
"0.16 µM"
>>> observed_value("COc1cc(OC)c(NC(=O)c2ccc(Cc3cc4c(cc3C)C(C)(C)CCC4(C)C)o2)c(OC)c1")
"2.4 µM"
>>> observed_value("COc1cc(OC)c(NC(=O)c2ccc(Cc3cc4c(cc3OC)C(C)(C)CCC4(C)C)o2)c(OC)c1")
"3.4 µM"
>>> observed_value("Cc1cc2c(cc1Cc1ccc(C(=O)NC[C@H]3CC[C@H](C(=O)O)CC3)o1)C(C)(C)CCC2(C)C")
"1.4 µM"

----------
target: mouse GnRH receptor (Mus musculus, UniProt Q01776); construct: expressed in transfected cells; host or cells: 293 cells; test: Radioligand binding, 125I-GnRH-A, 293 cells expressing mouse GnRH receptors; settings: 10 uM; read-out: % Inhib. @ 10 uM mGnRH
Sequence (Q01776 whole entry): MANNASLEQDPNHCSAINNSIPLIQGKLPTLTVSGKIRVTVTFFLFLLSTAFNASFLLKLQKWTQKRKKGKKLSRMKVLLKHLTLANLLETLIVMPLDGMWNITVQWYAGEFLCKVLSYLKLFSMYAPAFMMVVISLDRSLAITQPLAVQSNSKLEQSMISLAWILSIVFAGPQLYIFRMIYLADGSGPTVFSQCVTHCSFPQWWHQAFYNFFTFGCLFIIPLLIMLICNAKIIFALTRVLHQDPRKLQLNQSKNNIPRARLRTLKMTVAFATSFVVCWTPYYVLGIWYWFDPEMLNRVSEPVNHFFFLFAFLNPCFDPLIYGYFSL
Listed here are molecules together with their documented inhibition at 10 µM.
Measured Parameter: inhibition at 10 µM

>>> observed_value("Cc1cc2c(cc1Cc1ccc(C(=O)N(CCN3CCOCC3)Cc3ccccc3)o1)C(C)(C)CCC2(C)C [drawing 1461]")
"91%"
>>> observed_value("Cc1cc2c(cc1Cc1ccc(C(=O)N(CCCO)CCC(C)CCCC(C)(C)O)o1)C(C)(C)CCC2(C)C (centres unmarked)")
"99%"
>>> observed_value("Cc1cc2c(cc1Cc1ccc(C(=O)N3CCC(C)CC3)o1)C(C)(C)CCC2(C)C [drawing 1493]")
"82%"
>>> observed_value("CCSCCNC(=O)c1ccc(Cc2cc3c(cc2C)C(C)(C)CCC3(C)C)o1 [drawing 1588]")
"99%"
>>> observed_value("CCC(CO)NC(=O)c1ccc(Cc2cc3c(cc2C)C(C)(C)CCC3(C)C)o1 (centres unmarked) [drawing 1481]")
"89%"
>>> observed_value("Cc1cc2c(cc1Cc1ccc(C(=O)N3CCN(C(C)C)CC3)o1)C(C)(C)CCC2(C)C")
"100%"
>>> observed_value("Cc1cc2c(cc1Cc1ccc(C(=O)NCCc3ccc(OCc4ccccc4)c(OCc4ccccc4)c3)o1)C(C)(C)CCC2(C)C")
"20%"
>>> observed_value("Cc1cc2c(cc1Cc1ccc(C(=O)NC3CCC3)o1)C(C)(C)CCC2(C)C [drawing 1456]")
"60%"
>>> observed_value("CCN(C(=O)c1ccc(Cc2cc3c(cc2C)C(C)(C)CCC3(C)C)o1)C1CCCCC1 [drawing 1524]")
"100%"
>>> observed_value("Cc1cc2c(cc1Cc1ccc(C(=O)NCC(C)O)o1)C(C)(C)CCC2(C)C (centres unmarked) [drawing 1443]")
"90%"
>>> observed_value("CCC(C)CN(CCO)C(=O)c1ccc(Cc2cc3c(cc2C)C(C)(C)CCC3(C)C)o1 (centres unmarked)")
"101%"
>>> observed_value("Cc1cc2c(cc1Cc1ccc(C(=O)N3CCN(c4ccc(OCc5ccccc5)cc4)CC3)o1)C(C)(C)CCC2(C)C")
"44%"
>>> observed_value("Cc1cc2c(cc1Cc1ccc(C(=O)N3CCN(C(c4ccccc4)c4ccc(Cl)cc4)CC3)o1)C(C)(C)CCC2(C)C (centres unmarked)")
"4%"
>>> observed_value("CCOC(=O)C1CN(C(=O)c2ccc(Cc3cc4c(cc3C)C(C)(C)CCC4(C)C)o2)CCC1=O (centres unmarked)")
"71%"
>>> observed_value("Cc1cc2c(cc1Cc1ccc(C(=O)NCCC(C)C)o1)C(C)(C)CCC2(C)C")
"88%"
>>> observed_value("Cc1cc2c(cc1Cc1ccc(C(=O)NC3CCC(C)CC3)o1)C(C)(C)CCC2(C)C (centres unmarked)")
"64%"
>>> observed_value("Cc1cc2c(cc1Cc1ccc(C(=O)N(Cc3cccnc3)Cc3ccoc3)o1)C(C)(C)CCC2(C)C")
"99%"
